Entry source: ChEMBL document CHEMBL1275259

- assayed_system: DNA gyrase subunit A (Mycobacterium tuberculosis, UniProt P9WG47, D94G)
- assay_name: Inhibition of DNA supercoiling activity of Mycobacterium tuberculosis DNA gyrase subunit A D94G mutant
recorded_metric: pIC50
Note on units: pIC50 is unitless, being -log10 of a concentration expressed in mol/L.

molecule | assayed_system | pIC50
COc1c(N2CC[C@@H](C(C)(C)N)C2)c(F)cc2c(=O)c3c(=O)[nH]sc3n(C3CC3)c12 | DNA gyrase subunit A (Mycobacterium tuberculosis, UniProt P9WG47, D94G) | 5.10

// moving on: another record for pIC50
Ask: Requested field: pIC50. Item: COc1c(N2CCNC(C)C2)c(F)cc2c(=O)c(C(=O)O)cn(C3CC3)c12 (stereo not drawn)
Result: 4.36

====

- Tested on: Mycobacterium tuberculosis
- assay_name: Antimicrobial activity against extensively drug-resistant Mycobacterium tuberculosis isolate 18
- Format: functional
recorded_metric: MIC (µg/mL)
The reply should be a number in µg/mL, with the unit left off.

Some compounds with known MIC results, for comparison:
structure_smiles | recorded_metric | readout_value
COc1c(N2C[C@@H]3CCCN[C@@H]3C2)c(F)cc2c(=O)c(C(=O)O)cn(C3CC3)c12 | MIC | 1
CO[C@H]1/C=C/O[C@@]2(C)Oc3c(C)c(O)c4c(O)c(c(/C=N/N5CCN(C)CC5)c(O)c4c3C2=O)NC(=O)/C(C)=C\C=C\[C@H](C)[C@H](O)[C@@H](C)[C@@H](O)[C@@H](C)[C@H](OC(C)=O)[C@@H]1C | MIC | 8
COc1c(N2CC[C@@H](C(C)(C)N)C2)c(F)cc2c(=O)c3c(=O)[nH]sc3n(C3CC3)c12 | MIC | 0.125

// moving on: another record for MIC
Ask: Requested field: MIC. Item: NNC(=O)c1ccncc1
Result: 2

====

- System: Mycobacterium tuberculosis
- assay_name: Antimicrobial activity against multidrug-resistant Mycobacterium tuberculosis isolate 19
- Type: functional
recorded_metric: MIC (µg/mL)
The reply should be a number in µg/mL, with the unit left off.

Ask: Please provide the recorded MIC for CO[C@H]1/C=C/O[C@@]2(C)Oc3c(C)c(O)c4c(O)c(c(/C=N/N5CCN(C)CC5)c(O)c4c3C2=O)NC(=O)/C(C)=C\C=C\[C@H](C)[C@H](O)[C@@H](C)[C@@H](O)[C@@H](C)[C@H](OC(C)=O)[C@@H]1C [RIFAMPIN] , tested on Mycobacterium tuberculosis.
Result: 64

====

- Test system: Mycobacterium tuberculosis
- assay_name: Antimicrobial activity against quinolone-resistant Mycobacterium tuberculosis isolate 10
- Assay type: functional
recorded_metric: MIC (µg/mL)
The reply should be a number in µg/mL, with the unit left off.

Some compounds with known MIC results, for comparison:
compound | output_unit | MIC
CO[C@H]1/C=C/O[C@@]2(C)Oc3c(C)c(O)c4c(O)c(c(/C=N/N5CCN(C)CC5)c(O)c4c3C2=O)NC(=O)/C(C)=C\C=C\[C@H](C)[C@H](O)[C@@H](C)[C@@H](O)[C@@H](C)[C@H](OC(C)=O)[C@@H]1C [RIFAMPIN] | µg/mL | 0.004
NNC(=O)c1ccncc1 [ISONIAZID] | µg/mL | 0.03

Ask: Requested field: MIC. Item: COc1c(N2CC[C@@H](C(C)(C)N)C2)c(F)cc2c(=O)c3c(=O)[nH]sc3n(C3CC3)c12
Result: 0.125
